Overview of recorded growth inhibition for various compounds
# protocol.description: NCI Yeast Anticancer Drug Screen. Data for the cln2 rad14 strain (AID 165);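 note: 0% = growth equal to vehicle treated cultures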
# experimental.parameters: S. cerevisiae cln2 rad14 strain, at 50.0 µM, active compounds read high
This is part of a sample that, as a whole, favours compounds with a hit. Of some 79,000 tested, about 15% had one in any assay.

compound	growth inhibition / %
CN1C(=O)C(n2[nH]c(=O)n(-c3ccccc3)c2=O)C(=O)N(C)C1=O	-23.1
O=C(O)/C(=C/c1ccccc1[N+](=O)[O-])c1ccccc1	17.5
COc1ccc(CCN2CN=C(Sc3ccc([N+](=O)[O-])cc3Cl)NC2)cc1OC	10
O=C(/C=C/c1ccccc1Cl)c1ccc(Cl)c(Cl)c1	12
NCCCNCCCCNC(=O)C(O)NC(=O)CCCCCCN=C(N)N (centres undefined)	11.4
O=C1/C(=C/c2ccc(F)cc2)CC/C1=C\c1ccc(F)cc1	-2.55
COc1cc(C(=O)O)cc(OC(C)=O)c1OC	8.65
CCOc1ccc2nc(/C=C/c3ccccc3)ccc2c1	-3.75
CC(N)C(=O)NC(C(=O)O)C(C)C (centres undefined)	-14.7
N#C/C(=C(/Cc1ccc(F)cc1)NP(=O)(c1ccccc1)c1ccccc1)c1ccc(F)cc1	0.8
COc1cc(C(=O)NC(=S)Nc2csc(-c3ccc(F)cc3)n2)cc(OC)c1OC	16.9
N#Cc1c(-c2ccccc2)[nH]c2ccc(Cl)cc2c1=O	-7.8
OC1C/C=C/CCCCC1 (centres undefined)	1.95
COc1cc(C)c(C(=O)c2ccccc2NS(=O)(=O)c2ccc(C)cc2)cc1OC	22.6
Cc1ccc(S(=O)(=O)ON2C(=O)c3cccc4cc([N+](=O)[O-])cc(c34)C2=O)cc1	17.4
O=C(/C=C/c1ccc(O)cc1)c1ccc2c(c1)OCO2	-1.55
C/C(=N/NC(=O)c1ccccc1)C(=O)c1ccccc1	-1.2
c1ccc2cc3c(NC4=NCCO4)cccc3cc2c1	22.4
COC(=O)C(c1ccccc1)C(SCc1ccccc1)c1ccccc1 (centres undefined)	0.95
CCNC(=O)NCCN1CCOCC1	-75
CCOC(=O)c1nc2ccc(C(F)(F)F)cc2nc1NCc1ccc(OC)c(OC)c1	-13.1
O=C(Nc1cccc2ccccc12)O/N=C/c1ccccn1	39.3
CC(N(N=O)c1cccc(Cl)c1)S(=O)(=O)O (centres undefined)	22.6
C[Si](C)(C)O/C=C1/CCOC1=O	-6.5
